# target_or_system: T1, Human CD33 ECD-HSA (human)
# T1 construct: CD33 ECD fused at the C-terminus to monomeric HSA (C58S) and a six-histidine tag; also called C33W2; huCD33 ECD-HSA
# assay_overview: ProteOn SPR, mAb captured on anti-human Fc, antigen as analyte
We begin with a simple list: items and their reported Kd.

binder	u	Kd
C33B915 (antibody, V domains shown, OMNIMouse-derived anti-CD33 mAb; same V regions as C33B907; also called C33H255/C33L121; C33F553) VH: EVQLVESGGGLVQPGRSLRLSCAASGFTFDDYAMHWVRQVPGEGLEWVSGISWNGGDMVYADSVKGRFTISRDNAKNSLYLQMNSLRPEDTALYYCVKDMPYFDFLTGSDYYYYGMDVWGQGTTVTVSS VL: SYELTQPPSVSVSPGQTASITCSGDNLGNEHVCWYHQKPGQSPVLVIYQNNKRPSGIPERFSGSNSGNTATLSISGTQATDEADYYCQAWDSTTAVFGGGTKLTVL	nM	4.53
C33B914 (antibody, V domains shown, OMNIMouse-derived anti-CD33 mAb; same V regions as C33B906; also called C33H254/C33L120; C33F552) VH: QVQLVESGGGVVQPGRSLRLSCAASGFTFSYYGMHWVRQAPDKGLEWVAVIWFDGNNKYYADSVKGRFTISRDNSKNTLYLQMNSLRAEDTAVYYCARDRELLFDYWGQGTLVTVSS VL: SYELTQPPSVSVSPGQTASITCSGDELGDMYACWYQQKPGQSPLVVIYQDSKRPSGIPERFSGSNSGNTATLTISGTQAMDEAAYYCQTWDTRIAVFGGGTNLTVL	nM	22.1
C33B916 (antibody, V domains shown, OMNIMouse-derived anti-CD33 mAb; same V regions as C33B908; also called C33H256/C33L122; C33F554) VH: QVQLVESGGGVVQPGRSLRLSCATSGFTFSNYGMHWVRQAPGKGLEWVAVIWYVGSHKYYADSVKGRFTISRDNSKNTLYLQMNSLRAEDTAVYYCARDGSLCFDYWGQGTLVTVSS VL: SYELTQPPSVSVSPGQTANISCSGVTLGYNYAYWYQQKPGQSPILVISQDTQRPSGIPERFSGSNSGNTATLTISGTQAMDEAAYYCQAWDITTVLFGGGTKLTVL	nM	0.655
C33B912 (antibody, V domains shown, OMNIMouse-derived anti-CD33 mAb; also called C33H252/C33L118; C33F550) VH: EVQLVESGGGLVQPGRSLRLSCAASGFTFDDYAMHWVRQAPGKGLEWVSGIGWSGGSIVYADSVKGRFTISRDNAKNSLYLQMNSLRAEDTALYYCAKDSPYGDFFDYWGQGTLVTVSS VL: DIVMTQSPDSLAVSLGERATINCKSSQTVFYSSNNKNYLAWYQQKPGQPPKLLISWASTRKSGVPDRFSGSGSGTDFTLTVSSLQAEDVAVYYCQHYYSTPYTFGQGTKLEIK	nM	0.0302
